measurementNotes: growth inhibitors of H69AR lung tumor, primary screen, human, duplicate replicates (AID 580)
conditionNotes: H69AR lung tumor cells viability, ATP luminescence, 72 h; at 10 µM
Activity calls are given as the source filed them.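 The calls were made as follows: active = viability at or under a set limit in both replicates, limit being median viability minus 3 SD (cut at about 48% in these data, passing the limit was not always enough); inconclusive = at or under the limit in just one replicate; inactive = at or above the limit in both replicates.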
Answer with one of the outcomes given here: yes = active, no = inactive

Some solved cases for reference:
N#Cc1c(SCC(=O)N2CCOCC2)nsc1SCC(=O)N1CCOCC1	no
Cc1ccc(S(=O)(=O)NCC(=O)OCN2C(=O)c3ccccc3C2=O)cc1	no
NS(=O)(=O)c1ccc(NC(=O)N[C@@H](Cc2ccccc2)C(=O)O)cc1	no
CC(=N\O)/C(CN(C)C)=N/O	no
COc1ccccc1OCCCn1c(=O)oc2ccccc21	no

What outcome does the record of this test show for "CCOC(=O)c1ccc(COC(=O)c2cc3ccccc3oc2=O)o1" ?
no

# fetch the recorded call for "CCn1cc(C(=O)O)c(=O)c2cc(F)c(N3CCNCC3)nc21" here
no

What is the recorded call for this compound in the test? "O=C(Cn1nnc2c(cnn2-c2ccc(F)cc2)c1=O)c1ccccc1F"
no

For "COc1ccc(Cn2nnnc2CN2CCOCC2)cc1" , what call appears in the results of this test?
no

# outcome recorded in this test, key = "COc1ccc(CN(Cc2cc3cc4c(cc3[nH]c2=O)OCO4)C(=O)NC2CCCCC2)cc1"
no

Fill in: this test's call for "CS(=O)(=O)N1CCc2cc(C(=O)N3CCCCC3)ccc21" is ___
no

Kindly provide the recorded test outcome for the following compound: Cc1cc2c(c(=O)o1)C(C13C=CC(CC1)C3)C(C#N)=C(N)O2 (configuration not stated)
no

What was the test verdict on CCOC(=O)c1[nH]c2ccc(F)cc2c1NC(=O)C(C)N1CCc2cc(OC)c(OC)cc2C1 (configuration not stated) ?
yes

Hi team, can someone confirm the assay call for "Cc1cc(=O)[nH]c2c1cnn2Cc1ccccc1" ?
no

For "CCOC(=O)/C=C1\SCC(=O)N1Cc1nnc(-c2ccccc2Br)o1" , what call appears in the results of this test?
no

Fill in: this test's call for CCOC(=O)C1CCCN(C(=O)CNS(=O)(=O)c2ccc(Br)s2)C1 (configuration not stated) is ___
no

Which outcome was assigned to "COc1ccc(-c2cc3ccc(OCc4nn[nH]n4)cc3oc2=O)cc1" in this test?
no

Hello, I am checking results. What call was entered for "C1=Nc2c(NCc3ccccc3)ncnc2Oc2ccccc21" ?
no

Recorded test call requested for "Cc1ccc(C)c(N2CCN(Cc3nnnn3C3CCCCC3)CC2)c1"
no

Given "O=c1c(-c2ccc(F)cc2)coc2c3c(ccc12)OCCO3" , state the outcome it received in this test.
no

Kindly provide the recorded test outcome for the following compound: "COc1cccc(-c2nnc(SCC(N)=O)n2-c2ccc(Cl)cc2)c1"
no

For Cn1c2c(c(=O)[nH]c1=O)C(NC(=O)c1ccco1)(C(F)(F)F)C(=O)N2 (configuration not stated) , which call appears in the assay record?
no

Query: recorded result category for C=CCn1c(SCC(=O)NCC2CCCO2)nnc1C1CCCCC1 (configuration not stated) in this test
no
